experimental-target: T1, HLA-A2/E6 (29-38) tetramer (human; HPV 16)
T1 construct: also called E6(29-38) peptide-MHC tetramer; E6(29-38)-loaded tetramer
measurement-description: tetramer flow cytometry; transfected 1:1 CD4+ and CD4+/CD8+ Jurkat-derived cells;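 also: cell mixtures transiently transfected with TCR-encoding plasmids, analysed by flow cytometry 48 h later after HLA-A*02:01 E6 tetramer staining combined with anti-CD8 antibody co-staining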
experimental-endpoint: % cells in E6 tet-/CD8- quadrant

TCR 25 (codon optimized, cysteine modified version) (TCR, V domains shown) V domain 1: AQKITQTQPGMFVQEKEAVTLDCTYDTSDQSYGLFWYKQPSSGEMIFLIYQGSYDEQNATEGRYSLNFQKARKSANLVISASQLGDSAMYFCAMREGSLTGGGNKLTFGTGTQLKVEL V domain 2: DVKVTQSSRYLVKRTGEKVFLECVQDMDHENMFWYRQDPGLGLRLIYFSYDVKMKEKGDIPEGYSVSREKKERFSLILESASTNQTSMYLCASSLWGQSNQPQHFGDGTRLSILE    41.1%
